Target: T1, O9-bH
T1 chain: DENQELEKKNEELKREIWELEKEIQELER
Assay: two-hybrid library CCNG1;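 note: natural log of median RNA to DNA barcode read ratio; higher means stronger binding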

{"columns": ["binder", "interaction score"],
 "data": [
  ["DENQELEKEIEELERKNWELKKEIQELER [O5-bH]", -0.548],
  ["DEIQELEKKIEELKRENWELEKENQELER [O3-bH]", -0.716],
  ["DEIQELEKENEELERKIWELKKENQELER [O15-bH]", -0.267],
  ["DKIQELKKKNEELKRKIWELKKENQELER [O7-bH]", 0.59],
  ["DEIQELEKENEELEREIWELEKKNQELKR [O8-bH]", 0.486],
  ["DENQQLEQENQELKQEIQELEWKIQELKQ [4H1222-bN]", 1.11],
  ["DKNQELKKKIEELKRKNWELKKEIQELER [O13-bH]", -0.0315],
  ["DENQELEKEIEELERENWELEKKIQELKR [O14-bH]", 0.497],
  ["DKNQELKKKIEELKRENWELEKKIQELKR [O6-bH]", -0.446],
  ["DKIQELKKEIEELERENWELEKENQELER [O11-bH]", -1.15],
  ["DKIQELKKEIEELERKNWELKKKNQELKR [O4-bH]", -2.1],
  ["DKNQELKKENEELEREIWELEKEIQELER [O1-bH]", -2.31],
  ["DENQELEKKNEELKRKIWELKKKIQELKR [O2-bH]", 0.854],
  ["DEIQELEKKIEELKRKNWELKKKNQELKR [O12-bH]", 0.102],
  ["DKIQELKKKNEELKREIWELEKKNQELKR [O16-bH]", -0.421]
]}
